Recorded MHC, one value per entry.
Tested on: Erythrocyte
Test: Hemolytic activity in mouse red blood cell assessed as hemolysis incubated for 1 hr
Format: toxicity, cell-based
Bridge positions count the residues as written; N and C are the ends. Square brackets hold non-standard residues; d marks the D form. Peptide text beside a SMILES is read from it. * marks the point of attachment. ξ: configuration not given here. Hexanoyl(4ξ-Me) = CCC(C)CCC(=O)*; dOrn = NCCC[C@@H](N)C(=O)O; Orn = NCCC[C@H](N)C(=O)O
Quantity kind: MHC (µM)

Molecule	Tested target	Value measured
CCC(C)CCC(=O)N[C@H](CC(N)=O)C(=O)N[C@H](Cc1ccc(O)cc1)C(=O)N[C@H](Cc1c[nH]c2ccccc12)C(=O)N[C@H](CCCN)C(=O)N[C@@H](CCCN)C(=O)NCC(=O)N[C@H](CCCN)C(=O)N[C@@H](Cc1c[nH]c2ccccc12)C(=O)N[C@@H]1C(=O)N[C@@H]([C@@H](C)CC)C(=O)NCC(=O)N[C@@H](CO)C(=O)O[C@@H]1C (some centres not stated) ({Hexanoyl(4ξ-Me)}-[dN][dY][dW][dOrn][Orn]G[dOrn]WTIGS; ester 9-C)	Erythrocyte	128
CCC(C)CCC(=O)N[C@H](CC(N)=O)C(=O)N[C@H](Cc1ccc(O)cc1)C(=O)N[C@H](Cc1c[nH]c2ccccc12)C(=O)N[C@H](CN)C(=O)N[C@@H](CN)C(=O)NCC(=O)N[C@H](CN)C(=O)N[C@@H](Cc1c[nH]c2ccccc12)C(=O)N[C@@H]1C(=O)N[C@@H]([C@@H](C)CC)C(=O)NCC(=O)N[C@@H](CO)C(=O)O[C@@H]1C (mixture of isomers)	Erythrocyte	128
